Each entry below lists one item and its recorded kobs1 value.
molecular target: L25I PETNR (Enterobacter cloacae, UniProt P71278, L26I); conditions: 20 °C; 10 mM NADPH or 25 mM NADH; pH 7.0
Sequence (P71278 entry or part of it L26I): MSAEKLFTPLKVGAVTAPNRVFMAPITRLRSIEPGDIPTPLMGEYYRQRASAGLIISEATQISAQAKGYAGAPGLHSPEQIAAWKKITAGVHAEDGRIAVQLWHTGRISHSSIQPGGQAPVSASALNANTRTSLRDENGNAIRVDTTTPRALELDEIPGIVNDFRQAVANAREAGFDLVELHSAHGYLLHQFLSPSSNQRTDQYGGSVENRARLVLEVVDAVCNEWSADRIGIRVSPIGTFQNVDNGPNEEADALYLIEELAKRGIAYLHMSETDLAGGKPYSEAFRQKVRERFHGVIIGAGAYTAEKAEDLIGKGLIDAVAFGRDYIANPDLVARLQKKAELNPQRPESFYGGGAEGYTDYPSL
Recorded Metric: kobs1 (s⁻¹)

INSERT INTO measurements (molecule, unit_symbol, experimental_result) VALUES
  ('NC(=O)C1=CN([C@@H]2O[C@H](COP(=O)(O)OP(=O)(O)OC[C@H]3O[C@@H](n4cnc5c(N)ncnc54)[C@H](O)[C@@H]3O)[C@@H](O)[C@H]2O)C=CC1 [NADH]', 's⁻¹', 1.20),
  ('[2H][C@@H]1C=CN([C@@H]2O[C@H](COP(=O)(O)OP(=O)(O)OC[C@H]3O[C@@H](n4cnc5c(N)ncnc54)[C@H](O)[C@@H]3O)[C@@H](O)[C@H]2O)C=C1C(N)=O [(R)-[4-^2H]-NADH]', 's⁻¹', 0.160),
  ('NC(=O)C1=CN([C@@H]2O[C@H](COP(=O)(O)OP(=O)(O)OC[C@H]3O[C@@H](n4cnc5c(N)ncnc54)[C@H](OP(=O)(O)O)[C@@H]3O)[C@@H](O)[C@H]2O)C=CC1 [NADPH]', 's⁻¹', 24.33),
  ('[2H][C@@H]1C=CN([C@@H]2O[C@H](COP(=O)(O)OP(=O)(O)OC[C@H]3O[C@@H](n4cnc5c(N)ncnc54)[C@H](OP(=O)(O)O)[C@@H]3O)[C@@H](O)[C@H]2O)C=C1C(N)=O [(R)-[4-^2H]-NADPH]', 's⁻¹', 3.42);

* * *

molecular target: WT PETNR (Enterobacter cloacae, UniProt P71278); assay: Stopped-flow FMN reduction (reductive half-reaction, hydride transfer) of WT PETNR by coenzyme; details: T0 = 298 K, fit of kobs1 (5–40 °C) to eq 1
Sequence (P71278 entry or part of it): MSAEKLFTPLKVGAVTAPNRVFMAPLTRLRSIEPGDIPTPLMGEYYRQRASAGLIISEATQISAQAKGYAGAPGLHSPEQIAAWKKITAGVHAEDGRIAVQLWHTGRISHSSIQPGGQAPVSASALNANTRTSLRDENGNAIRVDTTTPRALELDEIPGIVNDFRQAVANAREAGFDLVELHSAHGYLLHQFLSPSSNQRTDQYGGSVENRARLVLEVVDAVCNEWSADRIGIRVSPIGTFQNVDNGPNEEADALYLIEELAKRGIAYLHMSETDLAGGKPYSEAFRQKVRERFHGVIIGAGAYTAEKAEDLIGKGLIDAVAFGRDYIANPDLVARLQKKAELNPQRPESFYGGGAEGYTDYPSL
Measured ΔCp^⧧, listed per entry.
Recorded Metric: ΔCp^⧧ (kJ mol^–1 K^–1)

INSERT INTO assay_data (compound, unit_symbol, experimental_result) VALUES
  ('[2H][C@@H]1C=CN([C@@H]2O[C@H](COP(=O)(O)OP(=O)(O)OC[C@H]3O[C@@H](n4cnc5c(N)ncnc54)[C@H](O)[C@@H]3O)[C@@H](O)[C@H]2O)C=C1C(N)=O [(R)-[4-^2H]-NADH]', 'kJ mol^–1 K^–1', 0.46),
  ('NC(=O)C1=CN([C@@H]2O[C@H](COP(=O)(O)OP(=O)(O)OC[C@H]3O[C@@H](n4cnc5c(N)ncnc54)[C@H](O)[C@@H]3O)[C@@H](O)[C@H]2O)C=CC1 [NADH]', 'kJ mol^–1 K^–1', 0.39);

* * *

target: L25A PETNR (Enterobacter cloacae, UniProt P71278, L26A); conditions: 35 °C; 10 mM NADPH or 25 mM NADH; pH 7.0
Sequence (P71278 entry or part of it L26A): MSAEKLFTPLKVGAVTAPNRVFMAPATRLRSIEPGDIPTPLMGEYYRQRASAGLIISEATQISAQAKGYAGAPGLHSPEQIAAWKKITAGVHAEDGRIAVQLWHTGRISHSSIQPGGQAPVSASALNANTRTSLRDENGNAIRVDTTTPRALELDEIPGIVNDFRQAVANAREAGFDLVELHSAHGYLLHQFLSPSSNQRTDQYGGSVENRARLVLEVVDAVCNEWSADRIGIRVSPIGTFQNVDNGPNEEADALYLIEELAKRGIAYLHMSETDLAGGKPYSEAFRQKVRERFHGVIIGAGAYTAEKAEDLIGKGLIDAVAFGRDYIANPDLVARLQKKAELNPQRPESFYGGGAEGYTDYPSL
Recorded Metric: kobs2 (s⁻¹)

INSERT INTO measurements (compound, recorded_metric, experimental_result) VALUES
  ('[2H][C@@H]1C=CN([C@@H]2O[C@H](COP(=O)(O)OP(=O)(O)OC[C@H]3O[C@@H](n4cnc5c(N)ncnc54)[C@H](OP(=O)(O)O)[C@@H]3O)[C@@H](O)[C@H]2O)C=C1C(N)=O [(R)-[4-^2H]-NADPH]', 'kobs2', 0.17),
  ('NC(=O)C1=CN([C@@H]2O[C@H](COP(=O)(O)OP(=O)(O)OC[C@H]3O[C@@H](n4cnc5c(N)ncnc54)[C@H](OP(=O)(O)O)[C@@H]3O)[C@@H](O)[C@H]2O)C=CC1', 'kobs2', 0.51),
  ('NC(=O)C1=CN([C@@H]2O[C@H](COP(=O)(O)OP(=O)(O)OC[C@H]3O[C@@H](n4cnc5c(N)ncnc54)[C@H](O)[C@@H]3O)[C@@H](O)[C@H]2O)C=CC1', 'kobs2', 0.11),
  ('[2H][C@@H]1C=CN([C@@H]2O[C@H](COP(=O)(O)OP(=O)(O)OC[C@H]3O[C@@H](n4cnc5c(N)ncnc54)[C@H](O)[C@@H]3O)[C@@H](O)[C@H]2O)C=C1C(N)=O [(R)-[4-^2H]-NADH]', 'kobs2', 0.11);
